Assay: reversal of MRP1-mediated doxorubicin resistance, pilot screen, H69AR cells, doxorubicin co-treatment (AID 601)
Settings: H69AR cells + 2 uM doxorubicin, CellTiter-Glo, 72 h; at 10 µM; stronger effect = higher value
measured-property: differential viability (reversal) (%)
Write the answer as a number in %, unit excluded.

INPUT: What does the data say about its differential viability (reversal)? Entry: O=C(NCCc1ccccc1)C1CCCN(S(=O)(=O)c2cccs2)C1 (centres undefined)
OUTPUT: 7.11

###

Below is a list of entries, each paired with its recorded inhibition value.
Experiment: growth suppression of yeast trafficking mutant, preliminary HTS, modulators of trafficking downstream of Golgi apparatus project, 1536-format plate, OD 615 nm (AID 637)
Conditions: yeast transport mutant growth, absorbance 615 nm, 18 h; stronger effect = higher value
Give your result in % as a bare value.

{"compound": "Cn1c(=O)c2c(nc(N3CCN(c4ccccc4)CC3)n2CCCc2ccccc2)n(C)c1=O", "unit-label": "%", "inhibition": 7.09}
{"compound": "COc1cccc(NC(=O)N2CCCC2C(=O)Nc2ccc3c(c2)OCO3)c1 (configuration not stated)", "unit-label": "%", "inhibition": -4.55}
{"compound": "Cc1cc(C)nc(NS(=O)(=O)c2ccc(NC(=O)Cn3c(=O)oc4ccccc43)cc2)n1", "unit-label": "%", "inhibition": 2}
{"compound": "O=C(CSc1nnc(SCc2ccc(Cl)cc2)s1)N1CCN(C(=O)c2ccco2)CC1", "unit-label": "%", "inhibition": -5.56}
{"compound": "CCn1c(C)nc2cc(C(=O)OC(C(F)(F)C(F)F)C(F)(F)C(F)F)ccc21", "unit-label": "%", "inhibition": 3.97}
{"compound": "Oc1ccccc1-c1cc(C(F)(F)C(F)F)[nH]n1", "unit-label": "%", "inhibition": 2.83}

INPUT: Record request: inhibition value, item COc1ccc(NC(=O)CSc2nnc(-c3ccncc3)n2CC2CCCO2)c(OC)c1 (configuration not stated)
OUTPUT: 4.13

INPUT: // lookup inhibition for O=C(C1CCCCC1)N1CC(=O)N2CCc3ccccc3C2C1 (configuration not stated)
OUTPUT: -0.83

INPUT: // inhibition lookup, key: CCn1nccc1C(=O)Nc1nccs1
OUTPUT: 3.65

INPUT: Fill blank: measured inhibition of the compound COc1ccc(NC(=O)c2oc3ccc(S(=O)(=O)N4CCC5(CC4)OCCO5)cc3c2C)cc1 is ____.
OUTPUT: -14.8

INPUT: Fill in: inhibition of CCCCN(CCCNC(=O)C1CCN(S(=O)(=O)CC)CC1)c1ccccc1 is ___
OUTPUT: -6.83

INPUT: Returns the measured inhibition for the input compound. Input: CN(Cc1ccccc1)C(=O)c1ccccc1NC(=O)c1ccco1
OUTPUT: -2.55

INPUT: Query (compound): CCCc1cc(C(=O)Nc2ccccc2C(=O)OC)no1 ; field requested: inhibition
OUTPUT: 14.5

INPUT: inhibition for Cc1ccc(C)c(Cn2c(=O)n(CCC(=O)NCc3ccco3)c(=O)c3sccc32)c1 ?
OUTPUT: -0.63

INPUT: Given CCOc1ccccc1N1C(=O)c2ccc(C(=O)Nc3cccnc3)cc2C1=O , state its recorded inhibition.
OUTPUT: -2.13

INPUT: // query inhibition value for entry CC1CCCCN1CCNS(=O)(=O)c1ccc2c(c1)oc(=O)n2C (configuration not stated)
OUTPUT: -1.11

INPUT: Fill in: inhibition of Clc1cccc(-c2nnc3sc(-c4ccccc4)nn23)c1 is ___
OUTPUT: -4

INPUT: GET /values?readout=inhibition&item= Cc1ccc(S(=O)(=O)NCC(c2cccnc2)N(C)C)cc1 (configuration not stated)
OUTPUT: 1.82

INPUT: Give the measured inhibition of CCOC(=O)c1c(C)oc2ccc(O)c(CN(C)C)c12 .
OUTPUT: 2.22

INPUT: Please look up its inhibition: CC(C)Cn1c(N)c(C(=O)NCc2cccs2)c2nc3ccccc3nc21
OUTPUT: 12.1

INPUT: Reported inhibition for O=C(C1CCN(C2CC(=O)N(c3ccc(F)cc3)C2=O)CC1)N1CCOCC1 (configuration not stated) : what is it?
OUTPUT: 4.43

INPUT: Entry COc1ccc(S(=O)(=O)N2CCN(S(=O)(=O)c3ccc4c(c3)OCCO4)CC2)cc1C : reported inhibition = ?
OUTPUT: 1.09
